# Test system: Pseudomonas aeruginosa
# Test Protocol: Minimum inhibitory concentration against Pseudomonas aeruginosa ATCC 15692 measured in succinate (SC) solid media
# Assay type: functional
Measurement Label: MIC (µg/mL)

[[record]]
input_smiles = "CCn1cc(C(=O)O)c(=O)c2cc(F)c(N3CCN(C(=O)CCC(=O)NCCNC(=O)CCC(=O)Nc4cc5cc(O)c(O)cc5[n+]5c4NCC[C@H]5C(=O)N[C@H](CO)C(=O)N[C@@H](CCCN=C(N)N)C(=O)N[C@H](CO)C(=O)N[C@@](C)(CCCN(O)C=O)C(=O)N[C@H]4CCCCNC(=O)[C@H]([C@@H](C)O)NC(=O)[C@H]([C@@H](C)O)NC(=O)[C@H](CCCN(O)C=O)NC4=O)CC3)cc21"
measurement_label = "MIC"
assay_result = 2

